The compounds listed here are annotated with their Ki.
system_tested: strychnineinsensitive glycine recognition site (NMDA receptor-ion channel complex) (Rattus norvegicus, UniProt P35439)
Construct: Synaptic plasma membranes (SPM) were prepared from rat forebrain; from tissue; host or cells: rat forebrain synaptic plasma membranes
experimental_protocol: Glycine binding assay, [3H]glycine, synaptic plasma membranes
run_conditions: 10 nM [3H]glycine, pH 7.4, rat forebrain SPM; read-out: Ki apparent, Gly

| compound | Ki |
| --- | --- |
| O=C(O)CCCc1c(C(=O)O)[nH]c2ccccc12 [compound 8, 2-carboxy-3-indolebutanoic acid] | > 100 µM |
| CCOC(=O)Cc1c(C(=O)OCC)[nH]c2ccccc12 [compound 19, ethyl 2-carboethoxy-3-indoleacetate] | > 100 µM |
| O=C(O)Cc1c(C(=O)O)[nH]c2c(Cl)cccc12 [compound 29, 2-carboxy-7-chloroindole-3-acetic acid] | > 30 µM |
| CCOC(=O)Cc1c(CO)[nH]c2cc(Cl)ccc12 [compound 52] | > 30 µM |
| O=C(O)Cc1c(C(=O)O)[nH]c2ccc(F)cc12 [compound 5, 2-carboxy-5-fluoro-3-indoleacetic acid] | 17.5 µM |
| Cc1cc2c(CC(=O)O)c(C(=O)O)[nH]c2cc1Cl [compound 21] | > 10 µM |
| CC(=O)Cc1c(C(=O)O)[nH]c2ccccc12 [compound 25, 3-(2-oxopropyl)indole-2-carboxylic acid] | > 30 µM |
| CN(C)CCNC(=O)Cc1c(C(=O)NCCN(C)C)[nH]c2cc(Cl)ccc12 [compound 54] | > 30 µM |
| CCOC(=O)c1[nH]c2cc(Cl)ccc2c1CCCl [compound 47] | > 10 µM |
